{"compound": "O=C1CCCN1C1=NC(CF)(CF)Oc2ccc([N+](=O)[O-])cc21", "melting point": "195 to 198 °C"}
{"compound": "CCC(C(=O)OC1CC(=O)NC1=O)c1ccccc1 (stereo not given)", "melting point": "96.5 to 97.5 °C"}
{"compound": "O=C1c2ccccc2COc2c(Br)cccc21", "melting point": "127 to 130 °C"}
{"compound": "CC(C)(c1ccccc1)C(n1ccnc1)S(=O)c1ccc(Cl)cc1 (stereo not given)", "melting point": "125 to 127 °C"}
{"compound": "CCCCCC(CC(=O)Nc1cc(C(=O)NC(=O)C(C)C)ccc1C(C)(C)C)c1ccc(OC)cc1OC (stereo not given)", "melting point": "157 to 159 °C"}
